# TESTED_ON: T1, Activin B (UniProt P09529 293-407)
# T1 sequence (looked up): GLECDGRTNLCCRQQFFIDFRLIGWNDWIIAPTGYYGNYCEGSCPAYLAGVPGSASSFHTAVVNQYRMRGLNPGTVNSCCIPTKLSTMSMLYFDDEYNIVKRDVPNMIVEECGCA
# ASSAY_SUMMARY: SPR, Biacore 3000; receptor fusion captured on chip, ligand in solution
Please go through the items and note down their Kd.
One number for each entry, in nM.

Consider the reported Kd for these binders:
• ActRIIa/b-delta 9m3 (SEQ ID NO: 41) fused to the N-terminus of hFc through a GGG linker (Fc fusion, also called ActRIIa/bΔ9m3 variant; not shown: human Fc (hFc)) GAILGRSETQECLFYNANWELDRTNQTGVERCEGEKDKRLHCFATWRNISGSIEIVKKGCWLDDFNCYDRTDCVETKENPQVYFCCCEGNMCNEKFSYFPEMEVTQPTSGGG = 0.0725
• ActRIIa/bmax2 (SEQ ID NO: 71) fused to the N-terminus of hFc through a GGG linker (Fc fusion, also called ActRIIa/bmax2 variant; not shown: human Fc (hFc)) GAILGRSETQECLFYNANWELERTNQTGVERCEGEKDKRLHCYATWRNISGSIEIVKKGCWLDDFNCYDRTDCVETEENPQVYFCCCEGNMCNEKFSYFPEMEVTQPTSNPGGG = 0.039
• ActRIIa/b-delta 9m4 (SEQ ID NO: 44) fused to the N-terminus of hFc through a GGG linker (Fc fusion, also called ActRIIa/bΔ9m4 variant; not shown: human Fc (hFc)) GAILGRSETQECLFYNANWELDRTNQTGVEPCEGEKDKRLHCYATWRNISGSIEIVKKGCWLDDFNCYDRTDCVETKENPQVYFCCCEGNMCNEKFSYFPEMEVTQPTSGGG = 0.254
• extracellular ActRIIa/bΔ9 variant (SEQ ID NO: 58) fused to the N-terminus of hFc through a GGG linker (Fc fusion, also called ActRIIA/BΔ9-Fc; not shown: human Fc (hFc)) GAILGRSETQECLFYNANWELDRTNQTGVERCEGEKDKRLHCYATWRNISGSIEIVKKGCWLDDFNCYDRTDCVETKENPQVYFCCCEGNMCNEKFSYFPEMEVTQPTSGGG = 0.0123
• extracellular ActRIIa/b variant (SEQ ID NO: 69) fused to the N-terminus of hFc through a GGG linker (Fc fusion, also called ActRIIA/B-Fc; not shown: human Fc (hFc)) GAILGRSETQECLFYNANWELERTNQTGVERCEGEKDKRLHCYATWRNISGSIEIVKKGCWLDDFNCYDRTDCVETEENPQVYFCCCEGNMCNEKFSYFPEMEVTQPTSGGG = 0.103

Quick one: give me Kd for each item below, same order please.
1. extracellular ActRIIa (SEQ ID NO: 73) fused to the N-terminus of hFc through a GGG linker (Fc fusion, also called ActRIIa (19-127); wild-type extracellular ActRIIa; not shown: human Fc (hFc)) AILGRSETQECLFFNANWEKDRTNQTGVEPCYGDKDKRRHCFATWKNISGSIEIVKQGCWLDDINCYDRTDCVEKKDSPEVYFCCCEGNMCNEKFSYFPEMEVTQPTSGGG
2. extracellular ActRIIa/bΔ9 min variant (SEQ ID NO: 6) fused to the N-terminus of hFc through a GGG linker (Fc fusion, not shown: human Fc (hFc)) GAILGRSETQECLFYNANWELDRTNQTGVEPCEGEKDKRLHCFATWKNISGSIEIVKKGCWLDDINCYDRTDCVETKENPQVYFCCCEGNMCNEKFSYFPEMEVTQPTSGGG
3. ActRIIa/bmax1 (SEQ ID NO: 70) fused to the N-terminus of hFc through a GGG linker (Fc fusion, also called ActRIIa/bmax1 variant; not shown: human Fc (hFc)) GAILGRSETQECLYYNANWELERTNQTGVERCEGEQDKRLHCYATWRNISGSIEIVKKGCWLDDFNCYDRTDCVETEENPQVYFCCCEGNMCNEKFSYFPEMEVTQPTSGGG

[out]
0.373
0.088
0.097
